# tested-target: human fibroblast stromelysin (Homo sapiens)
# Sequence (P08254 100-477): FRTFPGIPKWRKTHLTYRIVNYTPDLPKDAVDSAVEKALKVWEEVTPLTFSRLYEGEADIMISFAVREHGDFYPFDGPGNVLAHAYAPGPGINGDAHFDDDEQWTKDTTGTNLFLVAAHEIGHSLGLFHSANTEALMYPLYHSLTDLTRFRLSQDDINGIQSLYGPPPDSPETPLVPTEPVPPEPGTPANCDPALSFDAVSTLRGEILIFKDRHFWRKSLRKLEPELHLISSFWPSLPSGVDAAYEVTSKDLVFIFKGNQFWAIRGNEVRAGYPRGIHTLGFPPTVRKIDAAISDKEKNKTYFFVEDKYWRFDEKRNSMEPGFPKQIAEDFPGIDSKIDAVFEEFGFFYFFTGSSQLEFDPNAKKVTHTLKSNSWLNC
# protocol-description: Assay for inhibition of stromelysin (fluorescein-labeled casein substrate)
# Type: biochemical
# experimental-parameters: plasmin-activated human fibroblast prostromelysin, 37°C, 2 hours, pH 7.8; read-out: Inhibition of MMP-3
Record form. Attribute: pIC50. Fill in for each entry.
Please note pIC50 is a logarithmic value: minus log10 of concentration in mol/L. Answer with that number alone.

CC(=N)NCCCCC(NC(=O)C(CC(C)C)C(CCCc1ccccc1)C(=O)NO)C(=O)NCCO (single isomer, unassigned) on human fibroblast stromelysin (Homo sapiens) gives pIC50 = 8.05

CNC(=O)C(CCCN)NC(=O)C(CC(C)C)C(CCCc1ccc(NC(=N)N)cc1)C(=O)NO (stereo not drawn) on human fibroblast stromelysin (Homo sapiens) gives pIC50 = 7.38

CC(=N)NCc1ccc(CC(NC(=O)C(CC(C)C)C(C)C(=O)NO)C(=O)NN2CCOCC2)cc1 (single isomer, unassigned) on human fibroblast stromelysin (Homo sapiens) gives pIC50 = 7.62

CC(C)CC(C(=O)NC(CCCN)C(=O)NC1CC1)C(C)C(=O)NO (single isomer, unassigned) on human fibroblast stromelysin (Homo sapiens) gives pIC50 = 7.30

CNC(=O)C(CCCNC(=N)N)NC(=O)C(CC(C)C)C(Cc1ccc(CNS(=O)(=O)c2ccc(C)cc2)cc1)C(=O)NO (single isomer, unassigned) on human fibroblast stromelysin (Homo sapiens) gives pIC50 = 8.05

CNC(=O)C(CCNC(=N)N)NC(=O)C(CC(C)C)C(CC(C)C)C(=O)NO (stereo not drawn) on human fibroblast stromelysin (Homo sapiens) gives pIC50 = 7.22

CNC(=O)C(CCCNC(=N)N)NC(=O)C(CC(C)C)C(Cc1ccc(CN2C(=O)c3ccccc3C2=O)cc1)C(=O)NO (single isomer, unassigned) on human fibroblast stromelysin (Homo sapiens) gives pIC50 = 8.70

CC(C)CC(C(=O)NO)C(CC(C)C)C(=O)NC(Cc1ccc(CN)cc1)C(=O)NCCO (stereo not drawn) on human fibroblast stromelysin (Homo sapiens) gives pIC50 = 7.72

CNC(=O)C(Cc1ccc(CNC(C)=N)cc1)NC(=O)C(CC(C)C)C(C)C(=O)NO (single isomer, unassigned) on human fibroblast stromelysin (Homo sapiens) gives pIC50 = 7.74

###

# tested-target: TNF-α Convertase (Homo sapiens, UniProt P78536)
# Sequence (P78536 215-824): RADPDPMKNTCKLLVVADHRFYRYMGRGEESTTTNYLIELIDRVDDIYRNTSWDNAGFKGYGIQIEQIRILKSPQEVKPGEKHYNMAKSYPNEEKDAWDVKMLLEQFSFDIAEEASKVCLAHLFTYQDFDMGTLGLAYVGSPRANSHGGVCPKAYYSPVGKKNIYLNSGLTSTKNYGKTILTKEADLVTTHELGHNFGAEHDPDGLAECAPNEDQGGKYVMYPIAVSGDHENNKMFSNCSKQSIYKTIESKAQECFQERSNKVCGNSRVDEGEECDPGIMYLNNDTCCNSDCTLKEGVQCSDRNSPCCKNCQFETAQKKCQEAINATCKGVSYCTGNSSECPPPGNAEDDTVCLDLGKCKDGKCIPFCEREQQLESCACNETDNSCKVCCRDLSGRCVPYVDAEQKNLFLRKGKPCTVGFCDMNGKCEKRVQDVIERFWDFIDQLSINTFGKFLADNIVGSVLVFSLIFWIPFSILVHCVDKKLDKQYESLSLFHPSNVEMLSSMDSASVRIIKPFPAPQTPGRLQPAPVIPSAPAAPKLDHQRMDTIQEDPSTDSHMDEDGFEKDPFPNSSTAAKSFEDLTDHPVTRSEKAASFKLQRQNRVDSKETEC
# protocol-description: Assay for inhibition of TNF-α production in LPS-stimulated, PMA-differentiated U937 cells
Record form. Attribute: IC50. Fill in for each entry.
Express the result in nM but write the number alone.

According to the records, this compound CNC(=O)[C@H](CCCNC(=N)N)NC(=O)[C@H](CC(C)C)C(CCOc1ccccc1)C(=O)NO (single isomer, unassigned) displays IC50 of 340

According to the records, this compound CNC(=O)C(Cc1ccc(CN)cc1)NC(=O)C(CC(C)C)C(CCCc1ccccc1)C(=O)NO (single isomer, unassigned) displays IC50 of 210

According to the records, this compound CNC(=O)C(CCCNC(=N)N)NC(=O)C(CC(C)C)C(CCCC1CCCCC1)C(=O)NO (single isomer, unassigned) displays IC50 of 279

According to the records, this compound CNC(=O)[C@H](C)NC(=O)[C@H](CC(C)C)C(CCCCCNC(C)=N)C(=O)NO (single isomer, unassigned) displays IC50 of 2890

According to the records, this compound CNC(=O)C(CCCCNC(C)=N)NC(=O)C(CC(C)C)C(C)C(=O)NO (stereo not shown) displays IC50 of 2080

According to the records, this compound CNC(=O)C(CCCNC(=N)N)NC(=O)C(CC(C)C)C(Cc1ccc(CN2C(=O)c3ccccc3C2=O)cc1)C(=O)NO (single isomer, unassigned) displays IC50 of 426

According to the records, this compound CNC(=O)C(Cc1ccc(CN)cc1)NC(=O)C(CC(C)C)C(C)C(=O)NO (stereo not shown) displays IC50 of 1190

According to the records, this compound CNC(=O)[C@H](CCCNC(=N)N)NC(=O)[C@H](CC(C)C)C(CC(C)C)C(=O)NO (single isomer, unassigned) displays IC50 of 480

According to the records, this compound CNC(=O)[C@H](CCCCN)NC(=O)[C@H](CC(C)C)C(CCCc1ccc(C(=O)OC)cc1)C(=O)NO (single isomer, unassigned) displays IC50 of 421

According to the records, this compound CNC(=O)[C@H](C)NC(=O)[C@H](CC(C)C)C(CCCc1ccc(CN)cc1)C(=O)NO (stereo partly shown) displays IC50 of 942

According to the records, this compound CC(C)CC(C(=O)NO)C(CC(C)C)C(=O)NC(Cc1ccc(CN)cc1)C(=O)NCCN(C)C (single isomer, unassigned) displays IC50 of 1900

According to the records, this compound CNC(=O)C(CCCN)NC(=O)C(CC(C)C)C(CCCc1ccc(CNC(=N)N)cc1)C(=O)NO (single isomer, unassigned) displays IC50 of 737

According to the records, this compound CNC(=O)[C@H](CCCCN)NC(=O)[C@H](CC(C)C)C(CCCc1cccc(C(=O)OC)c1)C(=O)NO (single isomer, unassigned) displays IC50 of 352
